Molecular target: Renin (Homo sapiens)
Sequence (P00797 whole entry): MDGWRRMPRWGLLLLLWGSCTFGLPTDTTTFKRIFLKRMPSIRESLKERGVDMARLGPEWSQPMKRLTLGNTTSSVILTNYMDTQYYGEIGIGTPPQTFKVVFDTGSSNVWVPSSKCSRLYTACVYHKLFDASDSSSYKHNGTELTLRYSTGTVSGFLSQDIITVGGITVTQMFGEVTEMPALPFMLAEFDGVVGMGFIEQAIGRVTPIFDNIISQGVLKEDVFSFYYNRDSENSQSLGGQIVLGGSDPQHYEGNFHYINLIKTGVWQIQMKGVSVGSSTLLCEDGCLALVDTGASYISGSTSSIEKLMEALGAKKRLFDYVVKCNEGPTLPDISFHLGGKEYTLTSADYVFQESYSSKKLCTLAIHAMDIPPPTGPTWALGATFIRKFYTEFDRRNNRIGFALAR
pIC50: −log10 of the molar value.

>  <Compound>
CCCCNC(=O)[C@H](C)C[C@H](O)[C@H](CC1CCCCC1)NC(=O)[C@@H](CCCC)OP(=O)(CCCc1ccccc1)OCC (stereo in doubt; 7i)

>  <pIC50>
7.65

$$$$
>  <Compound>
CCC[C@@H](OP(=O)(CCCc1ccccc1)OCC)C(=O)N[C@@H](CC1CCCCC1)[C@@H](O)[C@@H](O)C1CC1 (stereo in doubt; 8h)

>  <pIC50>
7.70

$$$$
>  <Compound>
CCCCNC(=O)[C@@H](C)C[C@@H](O)[C@@H](CC1CCCCC1)NC(=O)[C@H](CCCC)OP(=O)(O)CCc1ccccc1

>  <pIC50>
7.34

$$$$
>  <Compound>
CCC[C@@H](OP(=O)(CCCc1ccccc1)OCC)C(=O)N[C@@H](CC1CCCCC1)[C@@H](O)[C@@H](O)C1CC1 (stereo in doubt; 8i)

>  <pIC50>
6.81

$$$$
>  <Compound>
CCCC[C@H](OP(=O)(O)CCCc1ccccc1)C(=O)N[C@@H](CC1CCCCC1)[C@@H](O)CC(=O)N[C@@H](C(=O)NCc1cnc(C)nc1N)[C@@H](C)CC

>  <pIC50>
7.24

$$$$
>  <Compound>
CCCC[C@H](OP(=O)(O)CCCc1ccccc1)C(=O)N[C@@H](CC1CCCCC1)[C@@H](O)CCSc1ccccn1

>  <pIC50>
6.94

$$$$
>  <Compound>
CCC[C@@H](OP(=O)(CCCc1ccccc1)OCC)C(=O)N[C@@H](CC1CCCCC1)[C@@H](O)[C@@H](O)CC(C)C (stereo in doubt; 8f)

>  <pIC50>
7.75

$$$$
>  <Compound>
CCCCNC(=O)[C@H](C)C[C@H](O)[C@H](CC1CCCCC1)NC(=O)[C@H](CCCC)OP(=O)(CCCc1ccccc1)OCC (stereo in doubt; 7l)

>  <pIC50>
6.67

$$$$
>  <Compound>
CCC[C@@H](OP(=O)(CCCc1ccccc1)OCC)C(=O)N[C@@H](CC1CCCCC1)[C@@H](O)[C@@H](O)CC(C)C (stereo in doubt; 8g)

>  <pIC50>
6.89

$$$$
>  <Compound>
CCCCNC(=O)[C@@H](C)C[C@@H](O)[C@@H](CC1CCCCC1)NC(=O)[C@H](CCCC)OP(=O)(O)CCCc1ccccc1

>  <pIC50>
8.32

$$$$
>  <Compound>
CCCCNC(=O)[C@H](C)C[C@H](O)[C@H](CC1CCCCC1)NC(=O)[C@H](CCCC)OP(=O)(CCCc1ccccc1)OCC (stereo in doubt; 7k)

>  <pIC50>
7.82

$$$$
>  <Compound>
CCCCNC(=O)[C@H](C)C[C@H](O)[C@H](CC1CCCCC1)NC(=O)[C@@H](CCCC)OP(=O)(CCCc1ccccc1)OCC (stereo in doubt; 7j)

>  <pIC50>
6.46

$$$$

----------
Target: Cathepsin D (Bos taurus, UniProt P80209)
Sequence (P80209 whole entry): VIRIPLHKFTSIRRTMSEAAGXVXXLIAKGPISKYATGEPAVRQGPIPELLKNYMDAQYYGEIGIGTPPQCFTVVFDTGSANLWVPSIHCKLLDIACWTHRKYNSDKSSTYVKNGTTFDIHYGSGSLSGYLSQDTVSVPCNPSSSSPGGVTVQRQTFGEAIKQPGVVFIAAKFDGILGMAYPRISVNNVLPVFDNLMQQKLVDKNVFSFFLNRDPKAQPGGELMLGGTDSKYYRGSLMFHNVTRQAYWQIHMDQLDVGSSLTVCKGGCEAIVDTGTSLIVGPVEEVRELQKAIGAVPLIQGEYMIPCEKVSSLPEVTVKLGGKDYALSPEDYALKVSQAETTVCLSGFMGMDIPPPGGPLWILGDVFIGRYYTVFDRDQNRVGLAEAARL
Experiment: In vitro inhibition of bovine cathepsin D.
pIC50: −log10 of the molar value.
# maps each entry to its pIC50
Value Type: pIC50

>  <Compound>
CCCC[C@H](OP(=O)(O)CCCc1ccccc1)C(=O)N[C@@H](CC1CCCCC1)[C@@H](O)CCSc1ccccn1

>  <Value Type>
pIC50

>  <Result>
< 5.00

$$$$
>  <Compound>
CCC[C@@H](OP(=O)(CCCc1ccccc1)OCC)C(=O)N[C@@H](CC1CCCCC1)[C@@H](O)[C@@H](O)CC(C)C (stereo in doubt; 8g)

>  <Value Type>
pIC50

>  <Result>
< 5.00

$$$$
>  <Compound>
CCC[C@@H](OP(=O)(CCCc1ccccc1)OCC)C(=O)N[C@@H](CC1CCCCC1)[C@@H](O)[C@@H](O)CC(C)C (stereo in doubt; 8f)

>  <Value Type>
pIC50

>  <Result>
5.67

$$$$
